Assay: Semi-thermodynamic solubility
Format: physicochemical
Settings: PBS, aqueous buffer, thermodynamic from solid, Room Temp; Overnight; LC-MSMS; read-out: Solubility Replicate 1
Experimental: In vitro ADME-T assays were performed by Cyprotex (Cyprotex Discovery, Cheshire, UK). […] The solution was agitated at ambient temperature overnight. The solutions were then centrifuged for 30 min at 3000 rpm at RT. The supernatant was removed and centrifuged for a further 30 min under the same conditions. […] The solubility of the shortlisted hits was calculated from a linear or quadratic fit of the standard curve.
metric name: solubility (µM)
State the answer as a number, implicitly in µM.

[[record]]
compound = "N#Cc1c(Cl)cc(O)c2c1C1C=CCC1C(c1ccc(Cl)cc1)N2 (stereo not shown)"
metric_name = "solubility"
value_observed = 25


Now for another entry.
Exercise: So what does the record say about solubility for COC(=O)C1=C(C)NC(C)=C(C(=O)OCCN(C)Cc2ccccc2)C1c1cccc([N+](=O)[O-])c1 (stereo not shown) [nicardipine, reference compound] ?
Solution: 34.3

* * *

test: Semi-thermodynamic solubility; format: physicochemical; settings: PBS, aqueous buffer, thermodynamic from solid, Room Temp; Overnight; LC-MSMS; read-out: Solubility Replicate 1
metric name: solubility

[[record]]
compound = "Oc1cc(Cl)cc2c1NC(c1ccc(Cl)cc1)C1CC=CC21 (stereo not drawn) [Compound 12]"
value_observed = "< 1 µM"


Exercise: Suppose we examine the compound O=[N+]([O-])c1c(Cl)cc(O)c2c1C1C=CCC1C(c1ccc(Cl)cc1)N2 (stereo not drawn) [Compound 7] ; what solubility value has been reported?
Solution: 11.8 µM

Exercise: For Cc1[nH]nc(-c2ccc(O)c(C)c2O)c1-c1nc2ccccc2s1 [Compound E12] then?
Solution: > 100 µM

* * *

experiment: CaCo-2 permeability (bi-directional); details: human, Caco-2, pH 7.4, Mean Papp A2B, HBSS/HBSS; pH 7.4/7.4
Each entry below carries its recorded Papp A→B at 120 min, 10 μM.
Report as a plain number; the unit ×10⁻⁶ cm/s is understood.

[[record]]
compound = "O=[N+]([O-])c1c(Cl)cc(O)c2c1C1C=CCC1C(c1ccc(Cl)cc1)N2 (stereo not shown)"
metric_name = "Papp A→B at 120 min, 10 μM"
value_observed = 3.59

[[record]]
compound = "COc1ncc(C(C)NC2CC(C)(C)NC(C)(C)C2)cc1Cl (stereo not shown)"
metric_name = "Papp A→B at 120 min, 10 μM"
value_observed = 4.79

[[record]]
compound = "O=C(O)c1c(Cl)cc(O)c2c1C1C=CCC1C(c1ccc(Cl)cc1)N2 (stereo not shown)"
metric_name = "Papp A→B at 120 min, 10 μM"
value_observed = 1.94


Exercise: So what's the measured Papp A→B at 120 min, 10 μM for this one? `Cc1[nH]nc(-c2ccc(O)c(C)c2O)c1-c1nc2ccccc2s1`
Solution: 4.53

Exercise: Repeat for the following compound: `CC(C)C[C@@H](CO)NCc1cc(O)c2cc(F)ccc2n1`
Solution: 4.7

Exercise: Quick one: `CC1(C)Cc2cccc(OCC(=O)Nc3nc4ccccc4s3)c2O1`
Solution: 1.11

Exercise: // same read-out, input: Oc1cc(Cl)cc2c1NC(c1ccccc1)C1CC=CC21 (stereo not shown)
Solution: 0.3

* * *

tested on: AGS; assay: SIA, collagen I invasion; format: cell-based; conditions: Homo sapiens, 100 ng/ml bFGF
metric name: EC50 (µM)
Give just the numeric value; µM need not be written.

Exercise: Observed EC50 on AGS for O=[N+]([O-])c1c(Cl)cc(O)c2c1C1C=CCC1C(c1ccc(Cl)cc1)N2 (stereo not shown) [Compound 7] , please.
Solution: 4.66
